# ASSAYED_SYSTEM: NL20 human bronchial epithelial cells expressing human Z-AAT (Homo sapiens, UniProt P01009, E366K)
# Construct: expressed in transfected cells; host or cells: NL20 human bronchial epithelial cells (NL20-SI line, doxycycline added)
# Sequence (P01009 25-418 E366K): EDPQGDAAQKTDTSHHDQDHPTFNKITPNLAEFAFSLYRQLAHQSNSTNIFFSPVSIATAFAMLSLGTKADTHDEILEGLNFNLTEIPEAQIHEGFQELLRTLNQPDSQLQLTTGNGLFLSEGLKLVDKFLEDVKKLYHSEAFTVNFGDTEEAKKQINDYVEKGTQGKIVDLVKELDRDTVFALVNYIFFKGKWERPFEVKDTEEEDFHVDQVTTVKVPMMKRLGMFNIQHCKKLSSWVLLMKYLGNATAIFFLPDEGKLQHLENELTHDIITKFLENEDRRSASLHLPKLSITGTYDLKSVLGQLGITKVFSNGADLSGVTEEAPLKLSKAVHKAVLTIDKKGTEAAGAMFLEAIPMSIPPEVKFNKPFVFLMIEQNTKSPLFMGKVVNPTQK
# RUN_DESCRIPTION: AAT Function Assay (MSD Assay NL20-SI Cell Line)
# Format: cell-based
# EXPERIMENTAL_SETUP: functionally active AAT (AAT-hNE complex) in supernatant of NL20 cells expressing human Z-AAT; read-out: NL20 Func. (EC50)
pEC50: −log10 of the molar value.
Below is a list of entries, each paired with its recorded pEC50 value.

Some entries whose results are on file:
Cc1cc(-n2c(C(C)C)c(S(C)(=O)=O)c3cc4[nH]nnc4cc32)ccc1F	< 5.52
O=C(O)[C@H]1CC[C@H](Cc2c(C3CCOCC3)n(-c3ccc(F)cc3)c3cc4cn[nH]c4cc23)CC1	5.52 to 5.94
C[C@H](O)C(=O)N1CC2(CC(c3c(C4CCOCC4)n(-c4ccc(F)c(F)c4)c4cc5cn[nH]c5cc34)C2)C1	< 5.52

We now examine a further compound.
QUERY: I have this compound here, Cc1cc(-n2c(C(C)C)c(C3CC4(CC(C(=O)O)C4)C3)c3c(F)c4[nH]nc(C)c4cc32)ccc1F (racemic) , and I need its recorded pEC50.
RESULT: > 5.94

###

# ASSAYED_SYSTEM: NL20 human bronchial epithelial cells expressing human Z-AAT (Homo sapiens, UniProt P01009, E366K)
# Construct: expressed in transfected cells; host or cells: NL20 human bronchial epithelial cells (NL20-SI line, doxycycline added)
# RUN_DESCRIPTION: AAT Function Assay (MSD Assay NL20-SI Cell Line)
# Assay type: cell-based
# EXPERIMENTAL_SETUP: functionally active AAT (AAT-hNE complex) in supernatant of NL20 cells expressing human Z-AAT; read-out: NL20 Func. (EC50)
pEC50: −log10 of the molar value.
PROPERTY_MEASURED: pEC50

QUERY: I have this molecule here, O=C(O)C1CC2(C1)CC(c1c(C3CCOCC3)n(-c3ccccc3)c3cc4cn[nH]c4cc13)C2 (stereo not shown) , and I need its recorded pEC50.
RESULT: 5.52 to 5.94

QUERY: I have this molecule here, CCS(=O)(=O)CCc1c(C2CCOCC2)n(-c2ccc(F)cc2)c2cc3cn[nH]c3cc12 , and I need its recorded pEC50.
RESULT: < 5.52

QUERY: I have this molecule here, CC(C)c1c(CCC(=O)O)n(-c2ccc(F)cc2)c2cc3cn[nH]c3cc12 , and I need its recorded pEC50.
RESULT: < 5.52

QUERY: I have this molecule here, C=C(C)c1c(C23CC(C(=O)O)(C2)C3)c2cc3[nH]ncc3cc2n1-c1ccc(F)cc1 , and I need its recorded pEC50.
RESULT: > 5.94

###

# ASSAYED_SYSTEM: NL20 human bronchial epithelial cells expressing human Z-AAT (Homo sapiens, UniProt P01009, E366K)
# Construct: expressed in transfected cells; host or cells: NL20 human bronchial epithelial cells (NL20-SI line, doxycycline added)
# RUN_DESCRIPTION: AAT Function Assay (MSD Assay NL20-SI Cell Line)
# Type: cell-based
# EXPERIMENTAL_SETUP: functionally active AAT (AAT-hNE complex) in supernatant of NL20 cells expressing human Z-AAT; read-out: NL20 Func. (EC50)
pEC50: −log10 of the molar value.
Below is a list of entries, each paired with its recorded pEC50 value.

Some entries whose results are on file:
COCC(C)(C)c1c(CC2CC(C(=O)O)C2)c2cc3[nH]ncc3cc2n1-c1ccc(F)cc1 (centres unmarked) [Compound 175]	5.52 to 5.94
Cc1cc(-n2c(C3CCOCC3)c(CC3CC3C(=O)O)c3cc4[nH]ncc4cc32)ccc1F (single isomer, unassigned) [Compound 101]	< 5.52
[H][C@]1(C(=O)O)C[C@]2(C1)C[C@@]([H])(c1c(C3CCOCC3)n(-c3ccc(F)cc3)c3cc4cn[nH]c4cc31)C2 (single isomer, unassigned) [Compound 109]	5.52 to 5.94

QUERY: I have this compound here, Cc1cc(-n2c(C(C)C)c(C3CC4(CC(C(=O)O)C4)C3)c3cc4[nH]ncc4cc32)ccc1F (single isomer, unassigned) [Compound 26] , and I need its recorded pEC50.
RESULT: > 5.94

QUERY: I have this compound here, NC(=O)NCCCc1c(C2CCOCC2)n(-c2ccc(F)cc2)c2cc3cn[nH]c3cc12 [Compound 157] , and I need its recorded pEC50.
RESULT: < 5.52

QUERY: I have this compound here, O=C(O)C1CC2(C1)CC(c1c(C3CCOCC3)n(-c3ccc(F)c(F)c3)c3cc4cn[nH]c4cc13)C2 (single isomer, unassigned) [Compound 67] , and I need its recorded pEC50.
RESULT: > 5.94

QUERY: I have this compound here, CC(C)c1c(CCC(=O)O)c2cc3[nH]ncc3cc2n1-c1cccc(C(F)F)c1 [Compound 37] , and I need its recorded pEC50.
RESULT: < 5.52

QUERY: I have this compound here, Cc1cc(-n2c(C(C)C)c([C@H]3C[C@@H](CC(=O)O)C3)c3cc4[nH]ncc4cc32)ccc1F [Compound 23] , and I need its recorded pEC50.
RESULT: > 5.94

QUERY: I have this compound here, O=C(OCc1ccccc1)N1CCC(Cc2c(C3CCOCC3)n(-c3ccc(F)cc3)c3cc4cn[nH]c4cc23)CC1 [Compound 152] , and I need its recorded pEC50.
RESULT: 5.52 to 5.94

QUERY: I have this compound here, Cn1cc(CCCc2c(C3CCOCC3)n(-c3ccc(F)cc3)c3cc4cn[nH]c4cc23)cn1 [Compound 144] , and I need its recorded pEC50.
RESULT: > 5.94

QUERY: I have this compound here, Cc1cc(-n2c(C3CCOCC3)c([C@H]3C[C@@H](C(=O)O)C3)c3cc4[nH]ncc4cc32)ccc1F [Compound 99] , and I need its recorded pEC50.
RESULT: < 5.52

QUERY: I have this compound here, Cc1cc(-n2c(C3CCOCC3)c(CC3(C(=O)O)CC3)c3cc4[nH]ncc4cc32)ccc1F [Compound 87] , and I need its recorded pEC50.
RESULT: 5.52 to 5.94

QUERY: I have this compound here, Fc1ccc(-n2c(C3CCOCC3)c(Cl)c3cc4[nH]ncc4cc32)cc1 [Compound 63] , and I need its recorded pEC50.
RESULT: 5.52 to 5.94

QUERY: I have this compound here, Cc1cc(-n2c(C3CCOCC3)c(CC(C)C(=O)O)c3cc4[nH]ncc4cc32)ccc1F (racemic) [Compound 105] , and I need its recorded pEC50.
RESULT: 5.52 to 5.94

###

# ASSAYED_SYSTEM: NL20 human bronchial epithelial cells expressing human Z-AAT (Homo sapiens, UniProt P01009, E366K)
# Construct: expressed in transfected cells; host or cells: NL20 human bronchial epithelial cells (NL20-SI line, doxycycline added)
# RUN_DESCRIPTION: AAT Function Assay (MSD Assay NL20-SI Cell Line)
# Type: cell-based
# EXPERIMENTAL_SETUP: functionally active AAT (AAT-hNE complex) in supernatant of NL20 cells expressing human Z-AAT; read-out: NL20 Func. (EC50)
# Description: A. AAT Function Assay (MSD Assay NL20-SI Cell Line) Alpha-1 antitrypsin (AAT) is a SERPIN (serine protease inhibitor) that inactivates enzymes by binding to them covalently. This assay measured the amount of functionally active AAT in a sample in the presence of the disclosed compounds 1-215 by determining the ability of AAT to form an irreversible complex with human neutrophil Elastase (hNE). […]
PROPERTY_MEASURED: EC50

Some entries whose results are on file:
O=C(O)C1CC2(C1)CC(c1c(C3CCOCC3)n(-c3ccc(F)cc3)c3cc4cn[nH]c4c(F)c13)C2 (single isomer, unassigned) [Compound 136]	< 1.16 µM
CC(C)c1c(CCC(=O)O)c2nc3[nH]ncc3cc2n1-c1ccc(F)cc1	> 3 µM
Cc1cc(-n2c(C3CCOCC3)c(C[C@H]3C[C@H](C(=O)O)C3)c3cc4[nH]ncc4cc32)ccc1F (single isomer, unassigned)	1.16 to 3 µM
CC(C)c1c(C2CC3(CC(C(=O)O)C3)C2)c2cc3[nH]ncc3cc2n1-c1ccc(F)cc1 (single isomer, unassigned) [Compound 36]	< 1.16 µM
O=C(O)[C@H]1C[C@H](c2c(C3CCOCC3)n(-c3ccc(F)cc3)c3cc4cn[nH]c4cc32)C1	1.16 to 3 µM

We now examine a further molecule.
QUERY: I have this molecule here, O=C(O)C1CC2(C1)CC(c1c(C3CCOC3)n(-c3ccc(F)cc3)c3cc4cn[nH]c4cc13)C2 (single isomer, unassigned) [Compound 141] , and I need its recorded EC50.
RESULT: > 3 µM
